Data origin, for the record: the Immune Epitope Database (IEDB)

target: HLA-A*11:01; assay: IEDB peptide-MHC binding, purified MHC/direct/fluorescence; filed as Kd, often an IC50 or EC50 that approximates it; bounds were set here for any values at or beyond the usual limits of such assays; settings: source organism: Vibrio cholerae
metricName: Kd

Challenge: Fill blank: measured Kd of the sequence AENKKFKLH is ____.
Response given: ≥ 20 µM

====

target: HLA-A*02:02; test: IEDB peptide-MHC binding, purified MHC/competitive/radioactivity; filed as Kd, often an IC50 or EC50 that approximates it; bounds were set here for any values at or beyond the usual limits of such assays; details: source organism: Vaccinia virus Copenhagen
metricName: pKd
Here pKd is given on a logarithmic scale as minus log10 of the concentration in mol/L.

Challenge: Requested read-out pKd, target or system HLA-A*02:02, entry LILSCIFAFI
Response given: 8.28
